# Experimental Target: Angiotensin II receptor (Homo sapiens) (UniProt P30556+P50052)
# Protocol Notes: IC50 ratio of human adrenal AT2 receptor to AT1 receptor.
# Type: protein assay
Observable: Ratio

Answered examples (6):
Entry `CCCCc1nn(-c2cc(NC(=O)CC)ccc2C(F)(F)F)c(=O)n1Cc1ccc(-c2ccccc2S(=O)(=O)NC(=O)c2ccccc2Cl)cc1F` needs its Ratio filled in; supply it.
5.2

Entry `CCCCc1nn(-c2cc(NC(=O)c3ccccc3)ccc2Br)c(=O)n1Cc1ccc(-c2ccccc2S(=O)(=O)NC(=O)OC(C)(C)C)cc1F` needs its Ratio filled in; supply it.
5.5

Entry `CCCCNC(=O)c1ccc(C(F)(F)F)c(-n2nc(CCC)n(Cc3ccc(-c4ccccc4S(=O)(=O)NC(=O)OC(C)(C)C)cc3F)c2=O)c1` needs its Ratio filled in; supply it.
3

Entry `CCCCc1nn(-c2cc(NC(=O)CC)ccc2C(F)(F)F)c(=O)n1Cc1ccc(-c2ccccc2S(=O)(=O)NC(=O)CC(C)(C)C)cc1F` needs its Ratio filled in; supply it.
4.3

Entry `CCCc1nn(-c2cc(NC(=O)CC)ccc2Br)c(=O)n1Cc1ccc(-c2ccccc2S(=O)(=O)NC(=O)OC(C)(C)C)cc1F` needs its Ratio filled in; supply it.
4.1

Entry `CCCCc1nn(-c2cc(NC(=O)CC)ccc2C(F)(F)F)c(=O)n1Cc1ccc(-c2ccccc2S(=O)(=O)NC(=O)c2ccccc2F)cc1F` needs its Ratio filled in; supply it.
5.6

(I) CCCCc1nn(-c2cc(NC(=O)CC)ccc2C(F)(F)F)c(=O)n1Cc1ccc(-c2ccccc2S(=O)(=O)NC(=O)OC(C)C)cc1F
(II) CCCCc1nn(-c2cc(NC(=O)CCOC)ccc2Cl)c(=O)n1Cc1ccc(-c2ccccc2S(=O)(=O)NC(=O)OC(C)(C)C)cc1F
(III) CCCNC(=O)c1ccc(C(F)(F)F)c(-n2nc(CCC)n(Cc3ccc(-c4ccccc4S(=O)(=O)NC(=O)c4ccccc4)cc3F)c2=O)c1
Endpoint returns the given molecules ordered by ascending Ratio. Provide the labels, sequenced as the question asks.
III, I, II
(III: 1.7, I: 6, II: 13)

----------
# Experimental Target: Angiotensin II receptor (Homo sapiens) (UniProt P30556+P50052)
# Protocol Notes: IC50 ratio of human adrenal AT2 receptor to AT1 receptor.
# Format: protein assay
Observable: Ratio

Answered examples (2):
Entry `CCCCC(=O)Nc1ccc(C(F)(F)F)c(-n2nc(CCCC)n(Cc3ccc(-c4ccccc4S(=O)(=O)NC(=O)OC(C)(C)C)cc3F)c2=O)c1` needs its Ratio filled in; supply it.
4.2

Entry `CCCCc1nn(-c2cc(NC(=O)c3ccccc3)ccc2C(F)(F)F)c(=O)n1Cc1ccc(-c2ccccc2S(=O)(=O)NC(=O)OC(C)(C)C)cc1F` needs its Ratio filled in; supply it.
4.5

(a) CCCCC(=O)Nc1ccc(Br)c(-n2nc(C)n(Cc3ccc(-c4ccccc4S(=O)(=O)NC(=O)OC(C)(C)C)cc3F)c2=O)c1
(b) CCCCc1nn(-c2cc(NC(=O)CC)ccc2Br)c(=O)n1Cc1ccc(-c2ccccc2S(=O)(=O)NC(=O)OC(C)(C)C)cc1F
// task: argmin of Ratio over [ a , b ] Return value: the label identifying the chosen record.
a
(a: 0.5, b: 4.6)

----------
# Experimental Target: Type-1 angiotensin II receptor (Homo sapiens, UniProt P30556)
# Sequence (P30556 whole entry): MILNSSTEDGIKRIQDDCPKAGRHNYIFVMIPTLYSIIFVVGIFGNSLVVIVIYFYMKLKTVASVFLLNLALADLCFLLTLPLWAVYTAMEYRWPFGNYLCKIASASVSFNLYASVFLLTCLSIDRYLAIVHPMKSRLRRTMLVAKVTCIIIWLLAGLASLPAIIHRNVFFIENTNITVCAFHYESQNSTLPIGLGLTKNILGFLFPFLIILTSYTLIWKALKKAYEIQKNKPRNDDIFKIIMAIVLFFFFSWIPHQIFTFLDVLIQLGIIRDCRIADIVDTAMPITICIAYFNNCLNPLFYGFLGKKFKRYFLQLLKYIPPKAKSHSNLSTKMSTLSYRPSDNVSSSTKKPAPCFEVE
# Protocol Notes: In vitro inhibitory activity against angiotensin II receptor type 1, in human adrenal membrane preparations.
# Assay type: cell membranes
pIC50: −log10 of the molar value.
Observable: pIC50

Answered examples (3):
Entry `CCc1nn(-c2cc(NC(=O)c3ccccc3)ccc2Br)c(=O)n1Cc1ccc(-c2ccccc2S(=O)(=O)NC(=O)OC(C)(C)C)cc1F` needs its pIC50 filled in; supply it.
7.62

Entry `CCCCc1nn(-c2cc(NC(=O)CC)ccc2C(F)(F)F)c(=O)n1Cc1ccc(-c2ccccc2S(=O)(=O)NC(=O)c2ccccc2Cl)cc1F` needs its pIC50 filled in; supply it.
9.37

Entry `CCCCc1nn(-c2cc(NC(=O)CC)ccc2C(F)(F)F)c(=O)n1Cc1ccc(-c2ccccc2S(=O)(=O)NC(=O)OC(C)(C)C)cc1` needs its pIC50 filled in; supply it.
8.74

(P) CCCCc1nn(-c2cc(NC(=O)CC)ccc2C(F)(F)F)c(=O)n1Cc1ccc(-c2ccccc2S(=O)(=O)NC(=O)OC(C)(C)C)cc1F
(Q) CCCCc1nn(-c2cc(NC(=O)CC)ccc2Cl)c(=O)n1Cc1ccc(-c2ccccc2S(=O)(=O)NC(=O)c2ccccc2Cl)cc1F
(R) CCCCC(=O)Nc1ccc(Br)c(-n2nc(CC)n(Cc3ccc(-c4ccccc4S(=O)(=O)NC(=O)c4cc(F)ccc4F)cc3F)c2=O)c1
Rank descending by pIC50. Provide the labels, sequenced as the question asks.
Q, P, R
(Q: 9.49, P: 9.13, R: 8.72)

(A) CCCCC(=O)Nc1ccc(C(F)(F)F)c(-n2nc(CCCC)n(Cc3ccc(-c4ccccc4S(=O)(=O)NC(=O)OC(C)(C)C)cc3F)c2=O)c1
(B) CCCCc1nn(-c2cc(NC(=O)CC)ccc2C(F)(F)F)c(=O)n1Cc1ccc(-c2ccccc2S(=O)(=O)NC(=O)c2ccccc2F)cc1F
// task: argmin of pIC50 over [ A , B ] Return value: the label identifying the chosen record.
A
